Entry source: paper PMC2864739

Biological target: HIV-1 envelope glycoprotein gp120 (IIIB) (HIV-1 IIIB (HXB2 clone entry), UniProt P04578)
Test: SPR; gp120 (IIIB) coupled covalently to a CM5 chip; D7 or D7 mutants at 25 and 100 nM flowed over; Biacore X; 10 mM HEPES pH 7.5, 100 mM NaCl, 0.05% P20; 30 µl/min; association 3 min, dissociation 15 min; simultaneous fit of association and dissociation
Settings: both partners purified
ATTRIBUTE_MEASURED: koff
Could you give the number and then its unit, please?

Some solved entries appear below for comparison.
INSERT INTO assay_data (binder, test_value) VALUES
  ('VHH D7 Asp100C→Ala (VHH, PDB 2xa3 holds D7 with five framework changes) with the stated CDR3 mutation; Chothia numbering (100C is an insertion position)) VHH: AVQLVESGGGLAQAGGSLRLSCTVSGRTSSSHDMGWFRQAPGKEREFVAAISWSGGTTNYADSVKGRFAISKDNAKNAVSLQMNSLKPEDTAVYYCAAKWRPLRYSANPSNSDYNYWGQGTQVTVSS', '0.000199 s⁻¹'),
  ('VHH D7 Lys95→Ser (VHH, PDB 2xa3 holds D7 with five framework changes) with the stated CDR3 mutation; Chothia numbering) VHH: AVQLVESGGGLAQAGGSLRLSCTVSGRTSSSHDMGWFRQAPGKEREFVAAISWSGGTTNYADSVKGRFAISKDNAKNAVSLQMNSLKPEDTAVYYCAASWRPLRYSDNPSNSDYNYWGQGTQVTVSS', '0.00236 s⁻¹');

Task: Name the reported koff value associated with the binder VHH D7 Leu99→Ala (VHH, PDB 2xa3 holds D7 with five framework changes) with the stated CDR3 mutation; Chothia numbering) VHH: AVQLVESGGGLAQAGGSLRLSCTVSGRTSSSHDMGWFRQAPGKEREFVAAISWSGGTTNYADSVKGRFAISKDNAKNAVSLQMNSLKPEDTAVYYCAAKWRPARYSDNPSNSDYNYWGQGTQVTVSS
Result: 0.005 s⁻¹

Task: Recorded koff of VHH D7 Tyr100A→Ala (VHH, PDB 2xa3 holds D7 with five framework changes) with the stated CDR3 mutation; Chothia numbering (100A is an insertion position)) VHH: AVQLVESGGGLAQAGGSLRLSCTVSGRTSSSHDMGWFRQAPGKEREFVAAISWSGGTTNYADSVKGRFAISKDNAKNAVSLQMNSLKPEDTAVYYCAAKWRPLRASDNPSNSDYNYWGQGTQVTVSS , please.
Result: 0.000359 s⁻¹
